Tested on: GB4
Test: qHTS profiling for inhibitors of Plasmodium falciparum proliferation (AID 504749); note: nearly all actives have a fitted effect of over 60% in size
Settings: P. falciparum in erythrocytes, SYBR Green DNA, 72 h; series mostly up to 28.7 µM
Records with an inconclusive call do not appear. Activity calls are given as the source filed them. Calls come from the whole dose curve; as a rule, active = well fitted inhibition curve with a large enough effect; inconclusive = small, poorly fitted or top-dose-only effect; inactive = flat fitted curve, though single readings scatter.
Give your call using only these classes: TRUE (active), FALSE (inactive)

## Input In this assay, the call recorded for `CN1CCC(=C2c3ccccc3CCc3sccc32)CC1` was what?
## Output TRUE

## Input And then `COc1cc(OC)c(C(=O)CCCN2CCCC2)c(OC)c1` , what is it?
## Output FALSE

## Input And then `C=C(c1ccc(C(=O)O)cc1)c1cc2c(cc1C)C(C)(C)CCC2(C)C` , what is it?
## Output FALSE
